Numbers sourced from ChEMBL document CHEMBL1201862.

Recorded GI50 values for a group of compounds are listed next.
Test system: Hs-578T
Assay: NCI tumour cell line growth inhibition, 48 h
The source made the active and inactive calls. Cut-off read from the data, not from the text of the source: active = GI50 up to about 1.1 µM and inactive = higher.

Observe how each entry below is paired with its result.
CC(NNC(=O)c1cc[n+]([BH2-]C#N)cc1)c1ccc(Cl)c(Cl)c1 (centres undefined)
28.4 µM (inactive)
O=c1c(Cc2c(O)ccc3ccccc23)nnc2sc(-c3nn4c(=O)c(Cc5c(O)ccc6ccccc56)nnc4s3)nn12
10.8 µM (inactive)
Cn1c(=O)n2n(c1=O)C(C)(C13CC4CC(CC(C4)C1)C3)C13CC4CC(CC1C4)CC23 (centres undefined)
> 100 µM (inactive)
COC(=O)N[C@H](C(=O)O)C(C)O[Si](C)(C)C(C)(C)C (some centres undefined)
> 100 µM (inactive)
O=C(O)c1ccccc1C(=O)Nc1cc2c(cc1Br)-c1ccccc1C2=O
91.2 µM (inactive)

Req: Name the recorded GI50 of COCCN(C(=O)c1ccccc1)C1CCC(=O)c2[nH]c3ccccc3c21 (centres undefined) , assay system Hs-578T.
Resp: 15.5 µM (inactive)

Req: Name the recorded GI50 of CC1=CC(O)CC(C)(C)C1/C=C/C(C)=C/C=C/C(C)=C/C=C/C=C(C)/C=C/C=C(C)/C=C/C1=C(C)CC(O)CC1(C)C (centres undefined) , assay system Hs-578T.
Resp: 80.5 µM (inactive)

Req: Name the recorded GI50 of CC(C)=CCOc1cc(NC(=S)c2ccsc2C)ccc1Cl , assay system Hs-578T.
Resp: 12.3 µM (inactive)

Req: Name the recorded GI50 of COc1ccccc1OC(=O)/C=C/c1ccccc1 , assay system Hs-578T.
Resp: > 100 µM (inactive)

Req: Name the recorded GI50 of N#CC(CCN1CCC(Nc2ccccc2)(c2nnnn2C2CCCCC2)CC1)(c1ccccc1)c1ccccc1 , assay system Hs-578T.
Resp: > 100 µM (inactive)

Req: Name the recorded GI50 of CCOC(=O)c1nc2cc(Cl)ccc2[nH]c1=O , assay system Hs-578T.
Resp: > 100 µM (inactive)

Req: Name the recorded GI50 of N/N=C1\CCCc2c1no[n+]2[O-] , assay system Hs-578T.
Resp: > 100 µM (inactive)

* * *

Recorded GI50 values for a group of compounds are listed next.
Tested on: SK-OV-3
Assay: NCI tumour cell line growth inhibition, 48 h
Active and inactive are the calls of the source. Cut-off read from the data, not from the text of the source: active = GI50 up to about 1.1 µM and inactive = higher.

C=C(C)C1Cc2c(cc(OC)c3c(=O)c4cccc(O)c4oc23)O1 (stereo unspecified)
19.5 µM (inactive)
CCn1c(CCCc2nc3c(=O)n(C)c(=O)n(C)c3[nH]2)nc2c1c(=O)n(C)c(=O)n2C
> 100 µM (inactive)
O=S1(=O)c2ccccc2N(O)C2=NCCN21
> 100 µM (inactive)

Req: Please list GI50 recorded for the compound CCOC(CI)O[C@@H]1C=C[C@H](OC(C)=O)C1 (stereo partly specified)
Resp: > 100 µM (inactive)

Req: Please list GI50 recorded for the compound NNC(=O)CCC(NS(=O)(=O)c1ccc(Cl)cc1)C(=O)NN (stereo unspecified)
Resp: > 100 µM (inactive)

Req: Please list GI50 recorded for the compound CC(C)(C)OC(=O)C(C1NC(C(=O)O)C(C)(C)S1)N1C(=O)c2ccccc2C1=O (stereo unspecified)
Resp: > 100 µM (inactive)

* * *

Tested on: COLO 205
Experiment: NCI tumour cell line growth inhibition, 48 h
The source made the active and inactive calls. Cut-off read from the data, not from the text of the source: active = GI50 up to about 1.1 µM and inactive = higher.
endpointName: GI50

Clc1ccc(-c2cn3c(nc4ccccc43)c(-c3ccccc3)n2)cc1
40.2 µM (inactive)
O=C1C(NCCc2cc(Br)c(O)c(Br)c2)=CC(=O)c2ncccc21
5.7 µM (inactive)
COC(=O)C1=C(C(=O)OC)C2(C)OC1C(=O)C21CC1 (stereo not drawn)
24.1 µM (inactive)

Req: Please list GI50 recorded for the molecule CC1=C(C)C(=O)C2=C(OCCO2)C1=O
Resp: 17.6 µM (inactive)

Req: Please list GI50 recorded for the molecule c1c[nH]c(CN2CCN(Cc3ncc[nH]3)CC2)n1
Resp: > 100 µM (inactive)

Req: Please list GI50 recorded for the molecule C[N+]1(C)CN(c2ccccc2)C2(CCN(CCCC(=O)c3cccs3)CC2)C1=O
Resp: 48 µM (inactive)

Req: Please list GI50 recorded for the molecule CC[C@@H]1CC[C@@H]2[C@H](CC[C@]3(C)[C@@H](OS(=O)(=O)c4ccc(C)cc4)CC[C@@H]23)[C@H]1CO
Resp: 12.4 µM (inactive)

Req: Please list GI50 recorded for the molecule COc1cc(/C=C/c2cc(/C=C/c3ccc(O)c(OC)c3)oc(=O)c2)ccc1O
Resp: 13.1 µM (inactive)

* * *

Test system: MDA-N
Assay: NCI tumour cell line growth inhibition, 48 h
The source made the active and inactive calls. Rule as the data show it: active = GI50 up to about 1.1 µM and inactive = higher.
Recorded GI50 values for a group of compounds are listed next.

Observe how each entry below is paired with its result.
CCOC(=O)c1csc(NC(=O)CCN2CCN(C)CC2)n1
> 100 µM (inactive)
CC1(C)OC2[C@@H](CO[C@@]3([C@@H](O)CCO)OC(C)(C)O[C@@H]23)O1 (stereo partly drawn)
> 100 µM (inactive)

# next compound below
Req: Name the recorded GI50 of C=C1C(=O)[C@@]23CC[C@@H]4[C@@]5(C)CCC[C@@]4(OC5=O)[C@@]2(C)CC[C@@H]1C3 , assay system MDA-N.
Resp: 1.87 µM (inactive)

* * *

System: OVCAR-4
Assay: NCI tumour cell line growth inhibition, 48 h
Calls of active or inactive are those of the source. Rule as the data show it: active = GI50 up to about 1.1 µM and inactive = higher.
Recorded GI50 values for a group of compounds are listed next.

Observe how each entry below is paired with its result.
NC(=O)NC(=O)c1cnccn1
> 100 µM (inactive)
O=C(Nc1ccc(Cl)cc1)NS(=O)(=O)c1coc2cc(F)ccc2c1=O
> 100 µM (inactive)
O=C1Nc2ccccc2/C1=N/NC(=S)N1CCCCC1
1.53 µM (inactive)

Req: Please list GI50 recorded for the compound COc1cc(C2(C)SCCCS2)c(I)c(OC)c1OC
Resp: > 100 µM (inactive)

Req: Please list GI50 recorded for the compound CN/N=C(/CC(=O)c1sc(NNC(C)=O)nc1C)C(=O)Nc1ccc(OC)cc1OC
Resp: > 100 µM (inactive)

Req: Please list GI50 recorded for the compound C/C(Nc1ccc(F)cc1)=C1/CCOC1=O
Resp: > 100 µM (inactive)

* * *

Test system: LOX IMVI
Assay: NCI tumour cell line growth inhibition, 48 h
Calls of active or inactive are those of the source. Rule as the data show it: active = GI50 up to about 1.1 µM and inactive = higher.
endpointName: GI50

Observe how each entry below is paired with its result.
COC(=O)/C=C(/C=C1/C(C#N)=C(N)N(c2ccc(Cl)cc2)C1(C)/C(=C\C(=O)OC)C(=O)OC)C(=O)OC (centres undefined)
17.1 µM (inactive)
O=C(O)CCC(NC(=O)c1ccc(Oc2nc3ccccc3nc2-c2ccccc2)cc1)C(=O)O (centres undefined)
> 100 µM (inactive)
O=C(N/N=C(/CCN1CCCC1)CC(c1ccccc1)c1c(O)c2ccccc2oc1=O)c1ccncc1 (centres undefined)
> 100 µM (inactive)
O=C(c1ccccc1)c1cc(Cl)ccc1NCn1nnc2ccccc21
73.3 µM (inactive)
NC(=O)c1ccccc1NC(=O)C(=O)Cc1nc2ccccc2nc1O
> 100 µM (inactive)

Req: Name the recorded GI50 of CC1=NN(c2cccc(Cl)c2)C2(SCC(=O)N2c2nc3ccccc3s2)/C1=C\c1ccc(N(C)C)cc1 (centres undefined) , assay system LOX IMVI.
Resp: > 100 µM (inactive)

Req: Name the recorded GI50 of O=C1CCN2C(=Nc3cccc4cccc2c34)N1 , assay system LOX IMVI.
Resp: > 100 µM (inactive)

Req: Name the recorded GI50 of CN(C)c1ccc(/C=C2\N=C(c3ccccc3)N(c3nc4c(Cl)cc(Cl)cc4s3)C2=O)cc1 , assay system LOX IMVI.
Resp: 38.3 µM (inactive)

Req: Name the recorded GI50 of N#Cc1c(-c2ccccc2)c(CN2CCCCC2)c(=O)n2c1[nH]c1ccccc12 , assay system LOX IMVI.
Resp: 20.7 µM (inactive)

* * *

System: 786-0
Assay: NCI tumour cell line growth inhibition, 48 h
Activity calls are given as the source filed them. Rule as the data show it: active = GI50 up to about 1.1 µM and inactive = higher.
endpointName: GI50

O=C(/C=C/c1ccccc1)CCN1CCCCC1
20.5 µM (inactive)
CSc1nc2c(c(=O)[nH]1)N=C(c1ccc(Cl)cc1)CC(c1ccccc1)N2 (stereo not given)
15.7 µM (inactive)
CCOc1ccccc1NC(=O)C(=O)C(/C(=N/N)C(=O)OC)c1nc2ccc([N+](=O)[O-])cc2nc1O (stereo not given)
> 100 µM (inactive)

Req: Please list GI50 recorded for the compound COC(=O)C1=C(C(=O)OC)C2(C)OC1C(=O)C21CC1 (stereo not given)
Resp: 38.7 µM (inactive)

Req: Please list GI50 recorded for the compound C[N+]1(C)CN(c2ccccc2)C2(CCN(CCCC(=O)c3cccs3)CC2)C1=O
Resp: > 100 µM (inactive)
